# assay-target: Microtubule-associated protein tau (Homo sapiens)
# assay: qHTS for Inhibitors of Tau Fibril Formation, Fluorescence Polarization; note: nearly all actives have a fitted effect of over 55% in size
# condition-context: K18 P301L tau heparin fibrillization, Alexa594 FP, 6 h; series mostly up to 57.7 µM
# Excerpt: NIH Molecular Libraries Probe Production Network [MLPCN] NIH Chemical Genomics Center [NCGC] Assay Provider: Carlo Ballatore, University of Pennsylvania The microtubule-associated protein tau is an abundant protein in the axons of neurons that stabilizes microtubules. With its ability to modulate microtubule dynamics, tau contributes directly or indirectly, to key structural and regulatory cellular functions. […]
Out of some 280,000 compounds screened, about 1,100 (0.39%) were called active. Not shown: some 7% with an inconclusive outcome. Calls come from the whole dose curve; as a rule, active = well fitted inhibition curve with a large enough effect; inconclusive = small, poorly fitted or top-dose-only effect, or effect the other way; inactive = flat fitted curve, though single readings scatter. This excerpt belongs to a sample that is enriched for actives.
Pick one: active, inactive

What call does the record list for `c1ccc2sc(SNC3CCCCC3)nc2c1` ?
inactive

What call does the record list for CN(C)[C@@H]1C(=O)C(C(N)=O)=C(O)[C@@]2(O)C(=O)C3=C(O)c4c(O)cccc4[C@@](C)(O)C3CC12 (some centres undefined) ?
inactive

What call does the record list for `CC[N+](C)(CC)CCC[n+]1c(-c2ccccc2)c2cc(N)ccc2c2ccc(N)cc21` ?
active

What call does the record list for CCCN(C/C=C/I)C1CCc2ccc(O)cc2C1 (centres undefined) ?
inactive

Just for reference, PubChem BioAssay AID1468 is where these values come from.
